molecules and their reported melting point

MOLECULE	melting point
O=C(Cn1cnc2onc(-c3ccc(F)cc3)c2c1=O)Nc1cccc(C(F)(F)F)c1 [Compound 22]	195 to 200 °C
O=C(Cn1cnc2onc(-c3ccc(F)cc3)c2c1=O)Nc1ccc2ccccc2c1 [Compound 36]	180 to 184 °C
O=C(Cn1cnc2onc(-c3ccc(F)c(Br)c3)c2c1=O)Nc1ccc([N+](=O)[O-])cc1 [Compound 49]	226 to 228 °C

Moving on to the next molecule.
Ask: Quick one: melting point for O=C(Cn1cnc2onc(-c3ccc(F)cc3)c2c1=O)Nc1cccc([N+](=O)[O-])c1 [Compound 24] ?
Reply: 232 to 235 °C

###

compounds and their reported pIC50
Biological target: IDO1 (Homo sapiens)
Sequence (P14902 6-403): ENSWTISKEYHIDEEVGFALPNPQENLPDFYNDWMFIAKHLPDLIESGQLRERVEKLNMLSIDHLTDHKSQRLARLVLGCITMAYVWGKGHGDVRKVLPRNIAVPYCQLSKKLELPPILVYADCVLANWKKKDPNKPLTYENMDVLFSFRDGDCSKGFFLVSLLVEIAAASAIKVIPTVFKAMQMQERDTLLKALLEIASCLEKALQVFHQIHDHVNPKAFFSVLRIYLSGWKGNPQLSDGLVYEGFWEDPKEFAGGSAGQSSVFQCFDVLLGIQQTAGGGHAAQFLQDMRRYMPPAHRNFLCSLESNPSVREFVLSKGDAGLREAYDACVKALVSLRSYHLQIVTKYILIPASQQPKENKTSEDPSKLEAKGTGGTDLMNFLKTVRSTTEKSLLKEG
Assay: hIDO1 inhibitory potency evaluation (fluorescence assay, NFK-derived fluorophore)
Details: recombinant hIDO1, mean ± SD of at least two independent determinations; read-out: IDO1 IC50
Schema: pIC50 number; meaning minus log10 of the concentration expressed in molar units.

Sample answers from the record:
SMILES DATA	ENDPOINT	VALUE OBSERVED
O=C(Cn1cnc2onc(-c3ccc(F)cc3)c2c1=O)Nc1cccc(C(F)(F)F)c1	pIC50	4.26
COC(=O)c1cccc(NC(=O)Cn2cnc3onc(-c4ccc(F)cc4)c3c2=O)c1	pIC50	4.26
O=C(Cn1cnc2onc(-c3ccsc3)c2c1=O)Nc1ccc([N+](=O)[O-])cc1	pIC50	4.40

Ask: Quick one: pIC50 for `O=C(Cn1cnc2onc(-c3ccc(F)cc3)c2c1=O)Nc1ccc2ccccc2c1` ?
Reply: 4.34

Ask: What would you report for `O=C(Cn1cnc2onc(-c3ccc(F)cc3)c2c1=O)NC12CC3CC(CC(C3)C1)C2` ?
Reply: 4.06

Ask: What would you report for `O=C(Cn1cnc2onc(-c3ccc(F)cc3)c2c1=O)Nc1ccc(C(F)(F)F)cc1` ?
Reply: 4.64

Ask: What would you report for `COC(=O)c1ccc(NC(=O)Cn2cnc3onc(-c4ccccc4)c3c2=O)cc1` ?
Reply: 4.66

Ask: What would you report for `O=C(Cn1cnc2onc(-c3ccc(F)cc3)c2c1=O)Nc1ccc(-c2ncco2)cc1` ?
Reply: 4.52

###

Biological target: UniProt P14902
Experiment: hIDO1 inhibitory potency evaluation (fluorescence assay, NFK-derived fluorophore)
Format: biochemical
Set-up: gene encoding human IDO1 residues 6-403 His-tagged at the N-terminus; His tag (N); made in house; host or cells: Escherichia coli NiCo21
Conditions: 100 µM compound; n.a. = not active; read-out: IDO1 % of Inhibition @ 100 µM
ENDPOINT: inhibition at 100 µM (%)
Report the figure in % without appending any unit label.

Sample answers from the record:
SMILES DATA	VALUE OBSERVED
O=C(Cn1cnc2onc(-c3ccc(F)cc3)c2c1=O)Nc1cccc([N+](=O)[O-])c1	30
O=C(Cn1cnc2onc(-c3ccsc3)c2c1=O)N1CCCc2ccccc21	23
O=C(Cn1cnc2onc(-c3ccc(OCc4ccccc4)cc3)c2c1=O)N1CCCc2ccccc21	14
CN(C)C(=O)Cn1cnc2onc(-c3ccc(F)cc3)c2c1=O	21
O=C(Cn1cnc2onc(-c3ccc(F)cc3)c2c1=O)Nc1cccc2ccccc12	20
CS(=O)(=O)c1ccc(NC(=O)Cn2cnc3onc(-c4ccc(F)cc4)c3c2=O)cc1	11
COC(=O)c1ccc(CNC(=O)Cn2cnc3onc(-c4ccc(F)cc4)c3c2=O)cc1	27
O=C(Cn1cnc2onc(-c3ccc(Br)cc3)c2c1=O)N1CCCc2ccccc21	32
COC(=O)c1ccccc1NC(=O)Cn1cnc2onc(-c3ccc(F)cc3)c2c1=O	32
O=C(Cn1cnc2onc(-c3ccc(F)cc3)c2c1=O)Nc1ccccc1	15

Moving on to the next compound.
Ask: Quick one: inhibition at 100 µM for `CN(C)c1ccc(NC(=O)Cn2cnc3onc(-c4ccc(F)cc4)c3c2=O)cc1` ?
Reply: 31
